// provenance: ChEMBL document CHEMBL2380241

Biological target: NAD-dependent protein deacetylase sirtuin-3, mitochondrial (Homo sapiens) (UniProt Q9NTG7)
Sequence (Q9NTG7 whole entry): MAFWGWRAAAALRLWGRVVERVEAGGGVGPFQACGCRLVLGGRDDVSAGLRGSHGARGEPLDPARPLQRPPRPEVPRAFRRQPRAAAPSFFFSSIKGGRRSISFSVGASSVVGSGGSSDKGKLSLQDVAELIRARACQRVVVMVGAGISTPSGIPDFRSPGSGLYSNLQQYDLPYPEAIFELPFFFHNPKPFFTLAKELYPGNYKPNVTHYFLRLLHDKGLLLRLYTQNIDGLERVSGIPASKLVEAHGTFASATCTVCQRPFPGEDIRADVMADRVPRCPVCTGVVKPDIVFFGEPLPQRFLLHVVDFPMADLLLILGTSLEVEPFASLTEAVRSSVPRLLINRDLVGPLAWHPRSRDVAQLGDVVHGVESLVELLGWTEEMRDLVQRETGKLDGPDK
Experiment: Inhibition of recombinant His-tagged SIRT3 (unknown origin) using Fluor de Lys acetylated KI179 as substrate at 200 uM incubated for 5 mins followed by enzyme addition measured after 1 hr by fluorescence assay relative to control
readout: inhibition (%)

compound=O=C1C(Cl)=C(Nc2cccc(O)c2)C(=O)N1CCc1ccccc1 assay_system="NAD-dependent protein deacetylase sirtuin-3, mitochondrial (Homo sapiens) (UniProt Q9NTG7)" readout_units=% readout_number=72
compound="Cc1cccc(N2C(=O)CC(N3CCN(c4cccc(C(F)(F)F)c4)CC3)C2=O)c1 (configuration not stated)" assay_system="NAD-dependent protein deacetylase sirtuin-3, mitochondrial (Homo sapiens) (UniProt Q9NTG7)" readout_units=% readout_number=13
compound=O=C(Cc1ccccc1)Nc1ccc2oc(-c3ccccc3F)nc2c1 assay_system="NAD-dependent protein deacetylase sirtuin-3, mitochondrial (Homo sapiens) (UniProt Q9NTG7)" readout_units=% readout_number=16
compound=COc1cccc(-c2noc(CCC(=O)Nc3ccc(NC(C)=O)cc3)n2)c1 assay_system="NAD-dependent protein deacetylase sirtuin-3, mitochondrial (Homo sapiens) (UniProt Q9NTG7)" readout_units=% readout_number=6.8
compound="O=C1CC(N2CCN(c3ccc(Cl)cc3)CC2)C(=O)N1c1ccc(F)cc1 (configuration not stated)" assay_system="NAD-dependent protein deacetylase sirtuin-3, mitochondrial (Homo sapiens) (UniProt Q9NTG7)" readout_units=% readout_number=9.2
compound=O=C(Cc1ccccc1)Nc1ccc2oc(-c3cc(Cl)ccc3Cl)nc2c1 assay_system="NAD-dependent protein deacetylase sirtuin-3, mitochondrial (Homo sapiens) (UniProt Q9NTG7)" readout_units=% readout_number=65
compound=Cc1ccc(-c2nc3cc(NC(=O)Cc4ccccc4)ccc3o2)cc1 assay_system="NAD-dependent protein deacetylase sirtuin-3, mitochondrial (Homo sapiens) (UniProt Q9NTG7)" readout_units=% readout_number=17
compound="COc1ccc(N2C(=O)CC(N3CCN(c4ccccc4O)CC3)C2=O)cc1 (configuration not stated)" assay_system="NAD-dependent protein deacetylase sirtuin-3, mitochondrial (Homo sapiens) (UniProt Q9NTG7)" readout_units=% readout_number=8.4
compound=O=C(CSc1ncnc2c1oc1ccccc12)Nc1cccc(O)c1 assay_system="NAD-dependent protein deacetylase sirtuin-3, mitochondrial (Homo sapiens) (UniProt Q9NTG7)" readout_units=% readout_number=39
compound=O=C(Cc1ccccc1)Nc1ccc2oc(-c3cccc(Cl)c3Cl)nc2c1 assay_system="NAD-dependent protein deacetylase sirtuin-3, mitochondrial (Homo sapiens) (UniProt Q9NTG7)" readout_units=% readout_number=48
compound=Cc1ccc(NC(=O)NCC2CCN(Cc3cc(C)ccc3Cl)CC2)c(C)c1 assay_system="NAD-dependent protein deacetylase sirtuin-3, mitochondrial (Homo sapiens) (UniProt Q9NTG7)" readout_units=% readout_number=7.5
compound="O=C1CC(N2CCN(c3cccc(C(F)(F)F)c3)CC2)C(=O)N1c1cccc(Cl)c1 (configuration not stated)" assay_system="NAD-dependent protein deacetylase sirtuin-3, mitochondrial (Homo sapiens) (UniProt Q9NTG7)" readout_units=% readout_number=13
compound="O=C(c1ccccc1)N1CCN(C2CC(=O)N(c3cccc(Cl)c3)C2=O)CC1 (configuration not stated)" assay_system="NAD-dependent protein deacetylase sirtuin-3, mitochondrial (Homo sapiens) (UniProt Q9NTG7)" readout_units=% readout_number=11
compound=O=C(Cc1ccccc1)Nc1ccc2oc(-c3ccc(Cl)cc3)nc2c1 assay_system="NAD-dependent protein deacetylase sirtuin-3, mitochondrial (Homo sapiens) (UniProt Q9NTG7)" readout_units=% readout_number=13
compound="COc1ccc(N2C(=O)CC(N3CCN(c4ccc(S(C)(=O)=O)cc4)CC3)C2=O)cc1 (configuration not stated)" assay_system="NAD-dependent protein deacetylase sirtuin-3, mitochondrial (Homo sapiens) (UniProt Q9NTG7)" readout_units=% readout_number=5.6
compound=CC(=O)Nc1ccc(NC(=O)CCC(=O)OCC(=O)c2cccc([N+](=O)[O-])c2)cc1 assay_system="NAD-dependent protein deacetylase sirtuin-3, mitochondrial (Homo sapiens) (UniProt Q9NTG7)" readout_units=% readout_number=6.7
compound=O=C(/C=C/c1ccccc1)Nc1ccc2oc(-c3ccccc3Cl)nc2c1 assay_system="NAD-dependent protein deacetylase sirtuin-3, mitochondrial (Homo sapiens) (UniProt Q9NTG7)" readout_units=% readout_number=48
compound=COc1cccc(-c2nc3cc(NC(=O)Cc4ccccc4)ccc3o2)c1 assay_system="NAD-dependent protein deacetylase sirtuin-3, mitochondrial (Homo sapiens) (UniProt Q9NTG7)" readout_units=% readout_number=44
compound=O=C(/C=C/c1ccccc1)Nc1ccc2oc(-c3ccccc3F)nc2c1 assay_system="NAD-dependent protein deacetylase sirtuin-3, mitochondrial (Homo sapiens) (UniProt Q9NTG7)" readout_units=% readout_number=38
compound=Cc1cccc(-c2nc3cc(NC(=O)Cc4ccccc4)ccc3o2)c1 assay_system="NAD-dependent protein deacetylase sirtuin-3, mitochondrial (Homo sapiens) (UniProt Q9NTG7)" readout_units=% readout_number=32
compound="Cc1ccc(N2C(=O)CC(N3CCN(c4ccc(F)cc4)CC3)C2=O)cc1 (configuration not stated)" assay_system="NAD-dependent protein deacetylase sirtuin-3, mitochondrial (Homo sapiens) (UniProt Q9NTG7)" readout_units=% readout_number=6.6
compound=O=C(Cc1ccc(Cl)cc1)Nc1ccc2oc(-c3ccccc3Br)nc2c1 assay_system="NAD-dependent protein deacetylase sirtuin-3, mitochondrial (Homo sapiens) (UniProt Q9NTG7)" readout_units=% readout_number=32
compound="O=C1CC(N2CCN(c3ccc(F)cc3)CC2)C(=O)N1Cc1ccccc1 (configuration not stated)" assay_system="NAD-dependent protein deacetylase sirtuin-3, mitochondrial (Homo sapiens) (UniProt Q9NTG7)" readout_units=% readout_number=6.9
compound=O=C(Cc1ccccc1)Nc1ccc2oc(-c3cc(F)c(F)cc3Cl)nc2c1 assay_system="NAD-dependent protein deacetylase sirtuin-3, mitochondrial (Homo sapiens) (UniProt Q9NTG7)" readout_units=% readout_number=41
compound=O=C(Cc1ccc(Cl)cc1)Nc1ccc2oc(-c3ccccc3F)nc2c1 assay_system="NAD-dependent protein deacetylase sirtuin-3, mitochondrial (Homo sapiens) (UniProt Q9NTG7)" readout_units=% readout_number=17
compound="COc1ccc(CCNC2CC(=O)N(CCc3ccc(OC)c(OC)c3)C2=O)cc1OC (configuration not stated)" assay_system="NAD-dependent protein deacetylase sirtuin-3, mitochondrial (Homo sapiens) (UniProt Q9NTG7)" readout_units=% readout_number=16
compound=O=C(Cc1ccccc1)Nc1ccc2oc(-c3ccc(Cl)cc3Cl)nc2c1 assay_system="NAD-dependent protein deacetylase sirtuin-3, mitochondrial (Homo sapiens) (UniProt Q9NTG7)" readout_units=% readout_number=71
compound=Cc1cccc(CN2CCC(CNC(=O)NCc3ccc(F)cc3)CC2)c1 assay_system="NAD-dependent protein deacetylase sirtuin-3, mitochondrial (Homo sapiens) (UniProt Q9NTG7)" readout_units=% readout_number=5.6
compound=O=C(Cc1ccccc1)Nc1ccc2oc(-c3ccccc3Br)nc2c1 assay_system="NAD-dependent protein deacetylase sirtuin-3, mitochondrial (Homo sapiens) (UniProt Q9NTG7)" readout_units=% readout_number=33
compound=O=C(Cc1ccccc1)Nc1ccc2oc(-c3ccccc3Cl)nc2c1 assay_system="NAD-dependent protein deacetylase sirtuin-3, mitochondrial (Homo sapiens) (UniProt Q9NTG7)" readout_units=% readout_number=51
compound="O=C1CC(N2CCN(c3ccc([N+](=O)[O-])cc3)CC2)C(=O)N1c1ccccc1 (configuration not stated)" assay_system="NAD-dependent protein deacetylase sirtuin-3, mitochondrial (Homo sapiens) (UniProt Q9NTG7)" readout_units=% readout_number=74
compound=O=C(NCC1CCN(Cc2ccccc2Cl)CC1)Nc1cccc(Cl)c1 assay_system="NAD-dependent protein deacetylase sirtuin-3, mitochondrial (Homo sapiens) (UniProt Q9NTG7)" readout_units=% readout_number=7.5
compound="COc1ccc(N2C(=O)CC(NCCc3ccc(S(N)(=O)=O)cc3)C2=O)cc1 (configuration not stated)" assay_system="NAD-dependent protein deacetylase sirtuin-3, mitochondrial (Homo sapiens) (UniProt Q9NTG7)" readout_units=% readout_number=7.6
compound="NS(=O)(=O)c1ccc(CCNC2CC(=O)N(c3ccc(Cl)c(Cl)c3)C2=O)cc1 (configuration not stated)" assay_system="NAD-dependent protein deacetylase sirtuin-3, mitochondrial (Homo sapiens) (UniProt Q9NTG7)" readout_units=% readout_number=11
compound=O=C(CCC(=O)Nc1ccc(F)c(Cl)c1)Nc1ccc(F)c(Cl)c1 assay_system="NAD-dependent protein deacetylase sirtuin-3, mitochondrial (Homo sapiens) (UniProt Q9NTG7)" readout_units=% readout_number=1.9
compound="O=C1CC(N2CCN(c3ccc(F)cc3)CC2)C(=O)N1c1ccc2c(c1)OCO2 (configuration not stated)" assay_system="NAD-dependent protein deacetylase sirtuin-3, mitochondrial (Homo sapiens) (UniProt Q9NTG7)" readout_units=% readout_number=6.4
compound=NS(=O)(=O)c1ccc(NC(=O)COC(=O)CN2C(=O)C(=O)c3ccccc32)cc1 assay_system="NAD-dependent protein deacetylase sirtuin-3, mitochondrial (Homo sapiens) (UniProt Q9NTG7)" readout_units=% readout_number=34
compound=O=C(Nc1ccc(Nc2ccccc2)cc1)c1c(Cl)cccc1Cl assay_system="NAD-dependent protein deacetylase sirtuin-3, mitochondrial (Homo sapiens) (UniProt Q9NTG7)" readout_units=% readout_number=22
compound="O=C1CC(N2CCN(c3cccc(C(F)(F)F)c3)CC2)C(=O)N1c1ccc(Cl)cc1 (configuration not stated)" assay_system="NAD-dependent protein deacetylase sirtuin-3, mitochondrial (Homo sapiens) (UniProt Q9NTG7)" readout_units=% readout_number=20
compound=O=C(CSCC(=O)Nc1ccc2ccccc2c1)NCc1ccccc1 assay_system="NAD-dependent protein deacetylase sirtuin-3, mitochondrial (Homo sapiens) (UniProt Q9NTG7)" readout_units=% readout_number=6.3
compound="O=C1CC(N2CCC(Cc3ccccc3)CC2)C(=O)N1c1ccc(F)cc1 (configuration not stated)" assay_system="NAD-dependent protein deacetylase sirtuin-3, mitochondrial (Homo sapiens) (UniProt Q9NTG7)" readout_units=% readout_number=15
compound="O=C1CC(N2CCN(c3cccc(C(F)(F)F)c3)CC2)C(=O)N1c1ccc(I)cc1 (configuration not stated)" assay_system="NAD-dependent protein deacetylase sirtuin-3, mitochondrial (Homo sapiens) (UniProt Q9NTG7)" readout_units=% readout_number=11
